Origin of the recorded values: ChEMBL document CHEMBL4732127

- measured-target: Cannabinoid receptor 2 (Homo sapiens)
- assay-method-text: Agonist activity at human CB2 expressed in mouse AtT20 cells assessed as maximal activation of G-protein gated inwardly rectifying K+ channels measured every 2 sec for 2 mins by FLIPR membrane potential assay relative to control
- Assay type: cell-based
- measurement-setup: filed as agonist
Collected Emax values appear next to each entry.
The figure you give is taken to be in %; do not add the unit.

CC(C)(O)COc1ccc(C(F)(F)F)cc1NC(=O)c1cc(C(C)(C)C)nn1C[C@H]1CCCO1; 106

Moving on to another molecule below.
Give Emax for this entry on Cannabinoid receptor 2 (Homo sapiens): CC(C)(O)COc1ccc(C(F)(F)F)cc1C(=O)Oc1cc(C(C)(C)C)nn1C[C@H]1CCCO1
106

###

- measured-target: Cannabinoid receptor 2 (Homo sapiens, UniProt P34972)
- Sequence (P34972 whole entry): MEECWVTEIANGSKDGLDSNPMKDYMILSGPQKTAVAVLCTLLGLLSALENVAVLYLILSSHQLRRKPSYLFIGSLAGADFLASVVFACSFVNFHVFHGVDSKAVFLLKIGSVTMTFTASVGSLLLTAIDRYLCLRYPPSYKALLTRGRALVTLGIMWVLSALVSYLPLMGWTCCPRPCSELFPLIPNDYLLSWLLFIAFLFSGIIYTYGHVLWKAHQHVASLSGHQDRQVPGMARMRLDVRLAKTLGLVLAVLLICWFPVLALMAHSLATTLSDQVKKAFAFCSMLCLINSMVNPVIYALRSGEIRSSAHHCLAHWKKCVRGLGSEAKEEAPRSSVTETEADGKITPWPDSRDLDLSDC
- assay-method-text: Agonist activity at human CB2 expressed in mouse AtT20 cells assessed as activation of G-protein gated inwardly rectifying K+ channels at 10 uM measured every 2 sec for 2 mins by FLIPR membrane potential assay relative to control
- Format: cell-based
- measurement-setup: filed as agonist
readout-type: Activity (%)
The figure you give is taken to be in %; do not add the unit.

CC(C)(O)COc1ccc(C(F)(F)F)cc1C(=S)Nc1cc(C(C)(C)C)nn1C[C@H]1CCCO1; 51
CC(C)(O)COc1ccc(C(F)(F)F)cc1C#Cc1cc(C(C)(C)C)nn1C[C@H]1CCCO1; 62
CC(C)(O)COc1ccc(C(F)(F)F)cc1NC(=O)Nc1cc(C(C)(C)C)nn1C[C@H]1CCCO1; 54

Look up and state reported Activity for CC(C)(O)COc1ccc(C(F)(F)F)cc1/C=C/c1cc(C(C)(C)C)nn1C[C@H]1CCCO1
54

###

- measured-target: Cannabinoid receptor 1 (Homo sapiens, UniProt P21554)
- Sequence (P21554 whole entry): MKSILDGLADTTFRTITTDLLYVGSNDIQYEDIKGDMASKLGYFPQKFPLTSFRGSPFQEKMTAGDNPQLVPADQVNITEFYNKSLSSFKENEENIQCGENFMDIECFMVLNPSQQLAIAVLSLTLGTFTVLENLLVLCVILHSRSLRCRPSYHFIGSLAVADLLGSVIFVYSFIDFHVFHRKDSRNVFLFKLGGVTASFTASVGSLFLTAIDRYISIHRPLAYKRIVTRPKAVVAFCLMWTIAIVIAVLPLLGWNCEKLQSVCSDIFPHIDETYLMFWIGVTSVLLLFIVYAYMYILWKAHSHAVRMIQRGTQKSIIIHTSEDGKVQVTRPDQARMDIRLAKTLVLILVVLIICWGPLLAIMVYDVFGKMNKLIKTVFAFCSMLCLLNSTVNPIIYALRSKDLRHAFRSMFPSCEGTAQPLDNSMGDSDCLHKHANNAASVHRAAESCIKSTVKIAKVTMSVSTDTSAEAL
- assay-method-text: Agonist activity at CB1 (unknown origin)
readout-type: EC50

Give EC50 for this entry on Cannabinoid receptor 1 (Homo sapiens, UniProt P21554): Cn1c(C(C)(C)C)c/c(=N\C(=O)c2cc(C(F)(F)F)ccc2OCC(C)(C)O)n1C[C@H]1CCCO1
> 10 µM

###

- measured-target: UniProtKB P34972
- assay-method-text: Agonist activity at CB2 (unknown origin)
readout-type: EC50 (nM)
The figure you give is taken to be in nM; do not add the unit.

Give EC50 for this entry on UniProtKB P34972: Cn1c(C(C)(C)C)c/c(=N\C(=O)c2cc(C(F)(F)F)ccc2OCC(C)(C)O)n1C[C@H]1CCCO1
19

###

Below are compounds with their pKi as measured on Cannabinoid receptor 1 (Homo sapiens, UniProt P21554).
pKi: −log10 of the molar value.

# example entries with known answers
CC(C)(O)COc1ccc(C(F)(F)F)cc1C(=O)Nc1cc(C(C)(C)C)nn1C[C@H]1CCCO1; < 5.00
Cn1c(C(C)(C)C)c/c(=N\C(=O)c2cc(C(F)(F)F)ccc2OCC(C)(C)O)n1C[C@H]1CCCO1; < 5.00

Moving on to another compound below.
Give pKi for this entry on Cannabinoid receptor 1 (Homo sapiens, UniProt P21554): CC(C)(O)COc1ccc(C(F)(F)F)cc1-c1nnc2c(C(C)(C)C)nn(C[C@H]3CCCO3)c2n1
< 5.00

###

Below are compounds with their Ki as measured on Cannabinoid receptor 2 (Homo sapiens, UniProt P34972).
The figure you give is taken to be in µM; do not add the unit.

Cn1c(C(C)(C)C)c/c(=N\C(=O)c2cc(C(F)(F)F)ccc2OCC(C)(C)O)n1C[C@H]1CCCO1; 0.0059

Moving on to another compound below.
Look up and state reported Ki for CC(C)(O)COc1ccc(C(F)(F)F)cc1-c1nnc2c(C(C)(C)C)nn(C[C@H]3CCCO3)c2n1
0.017

###

- measured-target: Cannabinoid receptor 2 (Homo sapiens, UniProt P34972)
- assay-method-text: Agonist activity at human CB2 expressed in mouse AtT20 cells assessed as activation of G-protein gated inwardly rectifying K+ channels measured every 2 sec for 2 mins by FLIPR membrane potential assay
- Type: cell-based
- measurement-setup: read-out: EC50
readout-type: pEC50
Please report pEC50 as the negative decimal logarithm of the molar concentration, giving only the number.

# example entries with known answers
CC(C)(O)COc1ccc(C(F)(F)F)cc1-c1nnc2c(C(C)(C)C)nn(C[C@H]3CCCO3)c2n1; 7.72
CC(C)(O)COc1ccc(C(F)(F)F)cc1-c1ncc2c(C(C)(C)C)nn(C[C@H]3CCCO3)c2n1; 7.39
CC(C)(O)COc1ccc(C(F)(F)F)cc1-c1ccc2c(C(C)(C)C)nn(C[C@H]3CCCO3)c2c1; 6.17

Look up and state reported pEC50 for CC(C)(O)COc1ccc(C(F)(F)F)cc1NC(=O)c1cc(C(C)(C)C)nn1C[C@H]1CCCO1
5.17

Look up and state reported pEC50 for CC(C)(O)COc1ccc(C(F)(F)F)cc1C(=O)Oc1cc(C(C)(C)C)nn1C[C@H]1CCCO1
5.89

###

Collected Emax values appear next to each entry.
- measured-target: Cannabinoid receptor 2 (Homo sapiens, UniProt P34972)
- assay-method-text: Agonist activity at human CB2 expressed in mouse AtT20 cells assessed as maximal activation of G-protein gated inwardly rectifying K+ channels measured every 2 sec for 2 mins by FLIPR membrane potential assay relative to control
- Assay type: cell-based
- measurement-setup: filed as agonist
Write the numeric value and append its unit.

# example entries with known answers
CC(C)(O)COc1ccc(C(F)(F)F)cc1-c1ncc2c(C(C)(C)C)nn(C[C@H]3CCCO3)c2n1; 106%
CC(C)(O)COc1ccc(C(F)(F)F)cc1-c1nnc2c(C(C)(C)C)nn(C[C@H]3CCCO3)c2n1; 115%

Look up and state reported Emax for CC(C)(O)COc1ccc(C(F)(F)F)cc1-c1ccc2c(C(C)(C)C)nn(C[C@H]3CCCO3)c2c1
104%
